ASSAY TARGET: Caspase recruitment domain-containing protein 9 (Homo sapiens) + E3 ubiquitin-protein ligase TRIM62 (Homo sapiens) (UniProt Q9H257+Q9BVG3)
Sequence (Q9BVG3 whole entry, looked up, the tested form may be a part): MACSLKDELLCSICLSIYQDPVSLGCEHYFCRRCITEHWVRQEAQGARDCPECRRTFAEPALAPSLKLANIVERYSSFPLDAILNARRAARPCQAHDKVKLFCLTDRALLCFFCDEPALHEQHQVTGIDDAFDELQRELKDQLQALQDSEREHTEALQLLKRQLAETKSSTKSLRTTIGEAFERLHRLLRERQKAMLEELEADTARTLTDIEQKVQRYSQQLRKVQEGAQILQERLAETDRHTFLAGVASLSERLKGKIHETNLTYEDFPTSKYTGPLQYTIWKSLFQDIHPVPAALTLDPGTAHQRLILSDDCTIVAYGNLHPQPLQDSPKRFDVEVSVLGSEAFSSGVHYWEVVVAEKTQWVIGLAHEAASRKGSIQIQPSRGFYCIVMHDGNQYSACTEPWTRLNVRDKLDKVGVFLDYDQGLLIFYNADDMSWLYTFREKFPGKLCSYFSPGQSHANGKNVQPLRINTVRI
Sequence (Q9H257 whole entry, looked up, the tested form may be a part): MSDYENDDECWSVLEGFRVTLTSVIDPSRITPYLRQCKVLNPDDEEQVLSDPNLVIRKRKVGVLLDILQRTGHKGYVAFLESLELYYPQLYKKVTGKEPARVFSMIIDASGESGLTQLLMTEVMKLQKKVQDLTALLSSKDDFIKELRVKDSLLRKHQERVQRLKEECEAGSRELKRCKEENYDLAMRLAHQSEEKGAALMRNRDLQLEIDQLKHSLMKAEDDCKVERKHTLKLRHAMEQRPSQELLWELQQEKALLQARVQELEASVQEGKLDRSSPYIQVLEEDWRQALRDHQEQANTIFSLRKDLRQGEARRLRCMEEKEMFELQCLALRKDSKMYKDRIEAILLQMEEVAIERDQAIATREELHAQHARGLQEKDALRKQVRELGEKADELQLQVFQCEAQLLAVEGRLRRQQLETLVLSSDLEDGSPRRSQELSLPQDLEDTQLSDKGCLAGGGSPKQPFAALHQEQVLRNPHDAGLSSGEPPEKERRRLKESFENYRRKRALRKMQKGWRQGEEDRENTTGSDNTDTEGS
ASSAY TEXT: CARD9/TRIM62 protein interaction inhibitors – cell lysate, HEK293FT lysates, Luminex bead ELISA, primary screen (AID 1259341);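 also: PE anti-Flag signal of Flag-CARD9 captured by myc-TRIM62 beads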
RUN PARAMETERS: PE fluorescence, hits give low values, concentration not given here
Measured activity change, negative = inhibition by item
OBSERVED PROPERTY: activity change, negative = inhibition (%)

* CCCCCn1c(NC(=O)c2ccco2)c(C(=O)OCC)c2nc3ccccc3nc21 | -11.3
* Nc1c2c(nc3ccccc13)CCN(Cc1ccccc1)C2 | -1.61
* O=C(NCCc1ccccc1)c1cc2cccnc2n(Cc2ccccc2)c1=O | -0.118
* Nc1c(C(=O)NCc2ccco2)c2nc3ccccc3nc2n1CCN1CCOCC1 | -14.4
* Cc1ccc(S(=O)(=O)Cc2ccc(C(=O)N3CCC4(CC3)OCCO4)o2)cc1 | 1.47

The measured values listed here are drawn from PubChem BioAssay AID1259341.
